Biological target: AuroraA-TPX2 (Homo sapiens)
Construct: 20 μL of AuroraA-TPX2 KD GST for a final volume of about 41 μL; GST
Sequence (O14965 133-383 limits assumed): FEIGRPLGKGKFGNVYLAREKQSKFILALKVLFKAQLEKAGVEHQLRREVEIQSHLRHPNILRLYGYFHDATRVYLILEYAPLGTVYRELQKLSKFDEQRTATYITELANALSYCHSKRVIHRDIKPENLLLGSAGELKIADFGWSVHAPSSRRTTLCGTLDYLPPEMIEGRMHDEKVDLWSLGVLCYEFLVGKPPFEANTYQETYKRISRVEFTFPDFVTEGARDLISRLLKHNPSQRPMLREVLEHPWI
Sequence (Q9ULW0 1-43 partner limits assumed): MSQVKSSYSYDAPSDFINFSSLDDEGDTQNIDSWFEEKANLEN
Experiment: AuroraA-TPX2 Homogeneous Time Resolved Fluorescent (HTRF) kinase assay
Format: biochemical
Details: average; read-out: AurA_IC50_IP (uM Avg)
Procedure: AuroraA-TPX2-Homogeneous Time Resolved Fluorescent (HTRF) Kinase Assay: The Aurora-A HTRF assay begins with Aurora-A in the presence of ATP phosphorylating the biotinylated peptide PLK. The reaction incubates for about 120 min. […] The assay is quenched and stopped with 160 μL of detection reagent. […] Added to this buffer prior to reading is Steptavidin allophycocyanin (SA-APC) at a final conc in the assay of 0.0005 mg/mL, and europilated anti-phosphoPLK Ab (Eu-anti-PLK) at a final conc of 0.02 nM. […]
Metric name: IC50 (µM)

Here is how some compounds turned out for IC50.
Consider the compound COc1ccc2nccc(Oc3ccc(Nc4nnc(-c5ccc(Cl)cc5)c5ccccc45)cc3)c2c1 and give its measured IC50.
0.12

Consider the compound COc1cc2nccc(Oc3ccc(Nc4nnc(-c5ccccc5)c5ccccc45)cc3)c2cc1C#N and give its measured IC50.
0.159

Consider the compound Brc1cnc2c(Oc3ccc(Nc4nnc(-c5ccccc5)c5ccccc45)cc3)ccnc2c1 and give its measured IC50.
0.153

Consider the compound COc1cnc2c(Oc3ccc(Nc4nnc(-c5sccc5C)c5ccccc45)cc3)ccnc2c1 and give its measured IC50.
0.231

a: COc1cnc2c(Sc3ccc(Nc4nnc(-c5cc(C)cs5)c5ccccc45)cc3F)ccnc2c1
b: O=C(Nc1cc(Oc2ccc(Nc3nnc(-c4ccccc4)c4ccccc34)cc2F)ccn1)N1CCOCC1
c: COc1cnc2c(Oc3ccc(Nc4nnc(-c5ccc(C)nc5F)c5ccccc45)cc3)ccnc2c1
d: c1ccc(-c2nnc(Nc3ccc(Sc4ccnc5[nH]ccc45)cc3)c3ccccc23)cc1
Order the records, beginning with the lowest IC50 and ending with the highest. Reply: labels, ordered per the request.
c, a, d, b
